- Tested on: SB.msgc-1
- TEST: area under the dose-response curve of % viability (trapezoidal, 11 doses) (% viability x log10 concentration); higher = less cytotoxic
- PROTOCOL CONDITIONS: SB.msgc-1 (sporadic gastric cancer)
Counter-ions that a name gives are not always drawn.
Quick rule for you: area under the dose-response curve at 500 or higher means Criterion met, lower means Criterion not met.

1. Cc1ccc(C(C)(O)c2nc3ccccc3s2)c(C)c1 (configuration not stated) (top concentration 46.0829 µM) :: Criterion met
2. CN[S+](=O)([O-])CCc1ccc2[nH]cc(C3CCN(C)CC3)c2c1 [Naratriptan hydrochloride] (top concentration 46.0829 µM) :: Criterion not met
3. C[C@@H](NC(=O)c1ncnc(N)c1Cl)c1ncc(C(=O)Nc2cc(C(F)(F)F)c(Cl)cn2)s1 [MLN-2480] (top concentration 46.0829 µM) :: Criterion met
4. CC(C)C[C@@H](N)[C@H](O)C(=O)N[C@H](C(=O)N[C@H](C(=O)N[C@@H](CC(=O)O)C(=O)O)C(C)C)C(C)C [Amastatin] (top concentration 46.0829 µM) :: Criterion not met
5. Cc1[nH]c2ccccc2c1CCNCc1ccc(/C=C/C(=O)NO)cc1 [Panobinostat] (top concentration 46.0829 µM) :: Criterion not met
6. CC/C(=C(\c1ccccc1)c1ccc(OCCN(C)C)cc1)c1ccccc1 [Tamoxifen] (top concentration 46.0829 µM) :: Criterion not met
7. CC1(C)[C@@H](O)CC[C@@]2(C)[C@H]1CC[C@]3(C)[C@@H]2C(=O)\C=C/4[C@@H]5C[C@](C)(CC[C@]5(C)CC[C@@]34C)C(O)=O [Enoxolone] (top concentration 46.0829 µM) :: Criterion met
8. CCN(CC)CCOC1=CC=C(NC2=NC=C3\C=C(/C(=O)N(C)C3=N2)C4=C(Cl)C=CC=C4Cl)C=C1 (top concentration 46.0829 µM) :: Criterion not met
9. CN(C)c1nc(Cc2ccc(NC(=O)c3ccc4ccccc4c3)cc2)nc(Cl)c1CC(=O)O [AP-768] (top concentration 46.0829 µM) :: Criterion met

---

Known area under the dose-response curve of a selection of molecules
- Test system: SB.mhdgc-1
- TEST: area under the dose-response curve of % viability (trapezoidal, 11 doses) (% viability x log10 concentration); higher = less cytotoxic
- PROTOCOL CONDITIONS: SB.mhdgc-1 (hereditary c.1380delA CDH1 gastric cancer)
EXPERIMENTAL ENDPOINT: area under the dose-response curve

1. CCNC(=O)[C@H]1O[C@@H](n2cnc3c(N)nc(NCCc4ccc(CCC(=O)O)cc4)nc32)[C@H](O)[C@@H]1O (top concentration 46.0829 µM) :: 548
2. C[N]1C=C(C2=CC=CC=C12)\C3=C(\C(=O)NC3=O)C4=C[N](C5CCN(CC5)CC6=NC=CC=C6)C7=C4C=CC=C7 [Enzastaurin] (top concentration 46.0829 µM) :: 447
3. OC(c1cc(C(F)(F)F)nc2c(C(F)(F)F)cccc12)C1CCCCN1 (stereo unspecified) [Mefloquine] (top concentration 46.0829 µM) :: 461
4. COc1ccc(Nc2cc(-c3cnc(N)nc3)nc(N3CCOCC3)n2)cn1 [NIBR-17] (top concentration 46.0829 µM) :: 378
5. CC1(C)CC(O)CC(C)(C)N1[O] [Tempol] (top concentration 46.0829 µM) :: 574
6. Cc1ccc(C(N)=O)cc1Nc1nccc(-c2cn(C(C)C)c3cnccc23)n1 (top concentration 46.0829 µM) :: 441

---

Known viability of a selection of compounds
- Test system: SB.msgc-1
- TEST: viability at highest tested concentration (MAXR) relative to DMSO; higher = less cytotoxic
- PROTOCOL CONDITIONS: SB.msgc-1 (sporadic gastric cancer)
EXPERIMENTAL ENDPOINT: viability (%)

1. C[C@@H]1C/C=C/C=C/C=C/C=C/[C@@H](O[C@@H]2O[C@H](C)[C@@H](O)[C@H](N)[C@@H]2O)C[C@@H]2O[C@](O)(C[C@@H](O)C[C@@H]3O[C@H]3/C=C/C(=O)O1)C[C@H](O)[C@H]2C(=O)O [Natamycin] (top concentration 46.0829 µM) :: 72.4
2. Cc1cc(OCCCc2c(C(=O)O)n(Cc3cccnc3)c3c(-c4c(COc5ccc(N6CCN([S+](C)(=O)[O-])CC6)cc5)nn(C)c4C)cccc23)cc(C)c1Cl (top concentration 46.0829 µM) :: 37.9
3. N\C1=N\C2=C(N=C[N]2COCCO)C(=O)N1 [Aciclovir] (top concentration 46.0829 µM) :: 82.4
4. CN(C)c1cc(NC(=O)CNC(C)(C)C)c(O)c2c1C[C@H]1C[C@H]3[C@H](N(C)C)C(O)=C(C(N)=O)C(=O)[C@@]3(O)C(O)=C1C2=O [Tigecycline] (top concentration 46.0829 µM) :: 98.6
5. C[C@H]1[C@@H](OC(=O)CCC(=O)O)O[C@@H]2O[C@@]3(C)CC[C@H]4[C@H](C)CC[C@@H]1[C@@]24OO3 [Artesunate (AS)] (top concentration 46.0829 µM) :: 41.4

---

Known AC50 for growth inhibition (log10 M) of a selection of compounds
- Test system: SB.msgc-1
- TEST: AC50 for growth inhibition (viability) (log10 M); higher = less potent
- PROTOCOL CONDITIONS: SB.msgc-1 (sporadic gastric cancer)
Counter-ions that a name gives are not always drawn.
EXPERIMENTAL ENDPOINT: AC50 for growth inhibition (log10 M)

1. CO[C@H]1/C=C\C=C(\C)C(=O)NC2=CC(=O)C(NCCN(C)C)=C(C[C@@H](C)C[C@H](OC)[C@H](O)[C@@H](C)/C=C(/C)[C@@H]1OC(N)=O)C2=O [Alvespimycin hydrochloride] :: -6.83
2. CCOC(=O)\C1=C(/C)N\C2=C(C1C3=CC=C(C=C3)C4=CC=CC=C4)\C(=O)CC(C)(C)C2 (stereo not drawn) :: -4.73
3. NC(CSC(c1ccccc1)(c1ccccc1)c1ccccc1)C(=O)O (stereo in doubt) :: -5.03
4. Cc1nc(Nc2n[nH]c3c2CN(C(=O)N[C@H](CN(C)C)c2ccccc2)C3(C)C)c2sccc2n1 :: -6.53
5. COC(=O)CCC1=C(C)C2=CC3=NC(=CC4=C(C)C(=C([NH]4)C=C\5N=C(C=C1[NH]2)\C(=C5C)CCC(O)=O)C=C)\C6=C\C=C(/[C@@H](C(=O)OC)[C@@]36C)C(=O)OC :: -7.03
6. ClC1=CC\2=C(OC3=C(C=CC=C3)\N=C2N4CCNCC4)C=C1 :: -4.78
7. CCCCN1CCC(CNC(=O)c2c3n(c4ccccc24)CCCO3)CC1 [Piboserod hydrochloride] :: -5.53
8. C[S+](=O)([O-])Oc1ccc2c(NC(N)=O)c(C(=O)c3ccc(Cl)cc3Cl)oc2c1 :: -5.53

---

- System: SB.mhdgc-1
- TEST: area under the dose-response curve of % viability (trapezoidal, 11 doses) (% viability x log10 concentration); higher = less cytotoxic
- PROTOCOL CONDITIONS: SB.mhdgc-1 (hereditary c.1380delA CDH1 gastric cancer)
Structures can show the parent of a compound that is named as a salt.
Quick rule for you: area under the dose-response curve at 500 or higher means y, lower means n.

1. CC1=C(CC(=O)O)c2cc(F)ccc2/C1=C\c1ccc([S+](C)[O-])cc1 (configuration not stated) [Sulindac] (top concentration 46.0829 µM) :: n
2. N[C@@H](C(=O)N[C@H]1[C@H]2SC\C(=C(/N2C1=O)C(O)=O)Cl)C3=CC=CC=C3 [Cefaclor] (top concentration 46.0829 µM) :: n
3. Cc1nc2ccc(CN(C)c3ccc(C(=O)N[C@@H](CCC(=O)O)C(=O)O)s3)cc2c(=O)[nH]1 [Raltitrexed] (top concentration 46.0829 µM) :: n
4. COC\1=C(/OC)C(=O)\C(=C(C)/C1=O)CCCCCCCCCCO [Idebenone] (top concentration 46.0829 µM) :: y
5. Cc1cc(C(C)(C)C)c(O)c(C)c1CC1=NCCN1 [Oxymetazoline hydrochloride] (top concentration 46.0829 µM) :: n
6. C[C@@H](NC1=CC=CC=C1C(O)=O)C/2=C/C(=C\N3C(=O)/C=C(\N=C23)N4CCOCC4)C [AZD-6482] (top concentration 92.1659 µM) :: n
7. Nc1nc(NCCNc2ncc(-n3ccnc3)c(-c3ccc(Cl)cc3Cl)n2)ccc1[N+](=O)[O-] (top concentration 46.0829 µM) :: n
8. C[C@@H](O)[C@@H]1[C@H]2[C@@H](C)\C(=C(/N2C1=O)C(=O)OCOC(=O)C(C)(C)C)SC3CN(C3)/C4=N/CCS4 [Tebipenem pivoxil] (top concentration 46.0829 µM) :: y
9. CN(C)C/C=C/C(=O)Nc1cc2c(Nc3ccc(F)c(Cl)c3)ncnc2cc1O[C@H]1CCOC1 [Afatinib] (top concentration 46.0829 µM) :: n
10. O=C1NC(=O)/C(=C/c2cccc(C(F)(F)F)c2)S1 [SMI-4a] (top concentration 46.0829 µM) :: y
11. C[C@@H](Oc1cc(-n2cnc3ccc(CN4CCN(C)CC4)cc32)sc1C(N)=O)c1ccccc1C(F)(F)F (top concentration 46.0829 µM) :: n
